// values below are reported GI50
System: HCC 2998
Assay: NCI tumour cell line growth inhibition, 48 h
Active and inactive are the calls of the source. No stated cut-off is given here; in the data, active = GI50 up to about 1.1 µM and inactive = higher.
endpoint-name: GI50

{"compound": "CC(C)(C1=NC(C(C)(C)C)CO1)C1=N[C@@H](C(C)(C)C)CO1 (stereo not given in full)", "system-under-test": "HCC 2998", "measured-result": "> 100 µM (inactive)"}
{"compound": "CC(C)(C)OC(=O)NCCC(=O)NC1(c2cc3ccccc3s2)CCCCC1", "system-under-test": "HCC 2998", "measured-result": "23.2 µM (inactive)"}
{"compound": "Fc1ccccc1C1SCC2=Nc3ccccc3CN21 (stereo not given)", "system-under-test": "HCC 2998", "measured-result": "> 100 µM (inactive)"}
{"compound": "CCOP(=O)(OCC)C(c1ccccc1)N(C(=O)NC(F)(F)F)c1cccc(F)c1 (stereo not given)", "system-under-test": "HCC 2998", "measured-result": "55.8 µM (inactive)"}
{"compound": "N#CCN1CCOCCOCCN(CC#N)CCOCCOCC1", "system-under-test": "HCC 2998", "measured-result": "> 100 µM (inactive)"}
{"compound": "COc1cc(C2c3cc4c(cc3[C@@H](Nc3ccc(F)cc3)C3COC[C@H]23)OCO4)cc(OC)c1O (stereo not given in full)", "system-under-test": "HCC 2998", "measured-result": "6.85 µM (inactive)"}
{"compound": "CC(=O)Oc1c2oc3cc(O)c(O)cc3c2c(OC(C)=O)c2oc3cc(O)c(O)cc3c12", "system-under-test": "HCC 2998", "measured-result": "16.9 µM (inactive)"}
{"compound": "N#CCCN(CCC#N)c1ccc(C(=N/c2ccc(Cl)cc2)/N=N/c2ccccc2)cc1", "system-under-test": "HCC 2998", "measured-result": "26.6 µM (inactive)"}
{"compound": "CCOC(=O)NN(C(=O)OCC)c1c(C)cc(C)cc1C", "system-under-test": "HCC 2998", "measured-result": "> 100 µM (inactive)"}
{"compound": "COc1ccc2n[se]nc2c1", "system-under-test": "HCC 2998", "measured-result": "38.6 µM (inactive)"}

====

Test system: SN12C
Experiment: NCI tumour cell line growth inhibition, 48 h
Activity calls are given as the source filed them. Rule as the data show it: active = GI50 up to about 1.1 µM and inactive = higher.
Property: GI50; scope: individual compounds

{"compound": "COc1ccc2n[se]nc2c1", "GI50": "> 100 µM (inactive)"}
{"compound": "N/N=c1\\c2ccccc2c2ccc3c4ccccc4/c(=N\\N)c3c12", "GI50": "> 100 µM (inactive)"}
{"compound": "CC(C)CCCC(C)[C@H]1CC[C@H]2[C@@H]3CC[C@H]4C[C@@H](CCC=C(c5cc(Cl)c(O)c(C(=O)O)c5)c5cc(Cl)c(O)c(C(=O)O)c5)CC[C@]4(C)[C@H]3CC[C@]12C (stereo not given in full)", "GI50": "> 50 µM (inactive)"}
{"compound": "Cc1cc2c(cc1C)[n+]([O-])c(C(=O)N1CCN(c3ccc([N+](=O)[O-])cc3)CC1)c(C)[n+]2[O-]", "GI50": "63.7 µM (inactive)"}
{"compound": "Oc1cc(O)c2ccc(-c3ccc(O)c(O)c3)[o+]c2c1", "GI50": "> 100 µM (inactive)"}
{"compound": "OC(c1ccccc1)(c1ccccc1)c1cccnc1", "GI50": "> 100 µM (inactive)"}
{"compound": "Cc1ccc(/C=C/C(=O)C(C)(C)CN2CCCCC2)cc1", "GI50": "3.9 µM (inactive)"}
{"compound": "CC1(C)C[C@H](O)[C@H](O)[C@]23C(=O)O[C@H](O)[C@H]2C(C=O)=CC[C@@H]13", "GI50": "> 100 µM (inactive)"}
{"compound": "O=C1NC(=S)NC(=O)C1=Cc1ccc(-c2ccccc2)cc1", "GI50": "> 100 µM (inactive)"}
{"compound": "NNC(=O)N/N=C1\\C(=O)N(c2nccs2)C(=O)C(=O)C1c1nc2ccccc2s1 (stereo not given)", "GI50": "> 100 µM (inactive)"}
{"compound": "Cc1ccc(S(=O)OCc2c(C)c(C)c(COS(=O)c3ccc(C)cc3)c(C)c2C)cc1 (stereo not given)", "GI50": "> 100 µM (inactive)"}
{"compound": "COc1ccc(NC(=O)C(=O)Cc2ccc([N+](=O)[O-])c([N+](=O)[O-])c2CC(=O)C(=O)Nc2ccc(OC)cc2OC)c(OC)c1", "GI50": "> 100 µM (inactive)"}
{"compound": "COC(=O)c1ccc(/C=N/c2cc(C)nn2-c2ccccc2)cc1", "GI50": "48.3 µM (inactive)"}
{"compound": "Cc1cc(N(CCC#N)CCC#N)ccc1/C=C1N=C(/C=C\\c2ccccc2)N(c2ccc(C(=O)O)cc2)C\\1=O", "GI50": "> 100 µM (inactive)"}
{"compound": "ClC[Si]12OCCN(CCO1)CCO2", "GI50": "> 100 µM (inactive)"}
{"compound": "CC(C)/C(Cl)=N\\OC(NC(=O)P(=O)(c1ccccc1)c1ccccc1)(C(F)(F)F)C(F)(F)F", "GI50": "11.9 µM (inactive)"}
{"compound": "CCOc1cccc2[s+]snc12", "GI50": "> 100 µM (inactive)"}
{"compound": "N#CCCN(CCC#N)c1ccc(C(=N/c2ccc(Cl)cc2)/N=N/c2ccccc2)cc1", "GI50": "> 100 µM (inactive)"}
{"compound": "CN1C(=O)C2(C)SC1(c1ccccc1)C1C(=O)N(c3ccccc3)C(=O)C12 (stereo not given)", "GI50": "> 100 µM (inactive)"}
{"compound": "Cc1ccc(/C=C/C(=O)c2cc(CN(C)C)c(O)c(CN(C)C)c2)cc1", "GI50": "14.2 µM (inactive)"}

====

System: A549
Test: NCI tumour cell line growth inhibition, 48 h
Activity calls are given as the source filed them. No stated cut-off is given here; in the data, active = GI50 up to about 1.1 µM and inactive = higher.

{"molecule": "NNC(=O)c1ccccc1Nc1nc(-c2cccs2)nc2ccc(Br)cc12", "GI50": "85.1 µM (inactive)"}
{"molecule": "O=S(=O)(Cc1ccccc1)SCc1ccccc1", "GI50": "30.8 µM (inactive)"}
{"molecule": "O=C1Oc2ccccc2C1C/C(=N\\Nc1ccccc1)c1ccccc1O (centres undefined)", "GI50": "50 µM (inactive)"}
{"molecule": "COc1ccc2n[se]nc2c1", "GI50": "45.5 µM (inactive)"}
{"molecule": "Cc1ccc(/C=N/n2c(Cc3ccccc3)n[nH]c2=O)cc1", "GI50": "> 100 µM (inactive)"}
{"molecule": "CO/C(=N\\N=C\\c1ccc(Cl)cc1)c1ccncc1", "GI50": "> 100 µM (inactive)"}
{"molecule": "CC(C)/C(Cl)=N\\OC(NC(=O)P(=O)(c1ccccc1)c1ccccc1)(C(F)(F)F)C(F)(F)F", "GI50": "5.15 µM (inactive)"}
{"molecule": "CC(C)(Cl)C(Br)CCC(C)(Br)C(Br)CBr (centres undefined)", "GI50": "30.1 µM (inactive)"}
{"molecule": "CC1(C)OCC=CCO1", "GI50": "> 100 µM (inactive)"}
{"molecule": "CCCN(CCCC(NC(C)=O)C(=O)NCc1ccccc1)C(=O)N(C)N=O (centres undefined)", "GI50": "> 100 µM (inactive)"}
{"molecule": "CC1(C)CC(=O)c2[nH]c3ccccc3c2CC(=O)NCCc2cn1cn2", "GI50": "> 100 µM (inactive)"}
{"molecule": "CC(C)n1c(=O)n(-c2ccccc2)n(C(C)(C)C)c1=O", "GI50": "> 100 µM (inactive)"}
{"molecule": "CCOC(=O)Nn1c(CC#N)nnc1Cc1ccccc1", "GI50": "> 100 µM (inactive)"}
{"molecule": "CC(C)(C)CNCCCNc1ccc(Cl)cc1", "GI50": "> 100 µM (inactive)"}
{"molecule": "O=[N+]([O-])C(/C=N/Nc1ccccc1)/C=N/Nc1ccccc1", "GI50": "> 100 µM (inactive)"}
{"molecule": "COc1cc2c(cc1OC)C1=C(C=O)c3ccc(OC)c(OC)c3C(O)N1CC2 (centres undefined)", "GI50": "22.7 µM (inactive)"}
{"molecule": "O=C1NCCCC12CCCNC2=O", "GI50": "> 100 µM (inactive)"}
{"molecule": "O/N=C/c1ncccc1C1OCCO1", "GI50": "> 100 µM (inactive)"}
{"molecule": "CC(=O)Nc1ccc(C(=O)N2N=C(C)/C(=C/c3cccc(O)c3)C2=O)cc1", "GI50": "> 100 µM (inactive)"}
{"molecule": "C=CC/N=C1/N=C(CC(=O)OCC)CS1", "GI50": "> 100 µM (inactive)"}
{"molecule": "CCOc1cccc2[s+]snc12", "GI50": "> 100 µM (inactive)"}
{"molecule": "O=C1NC2NC3NC(=O)NC3NC2N1 (centres undefined)", "GI50": "> 100 µM (inactive)"}
{"molecule": "O=c1c2cc([N+](=O)[O-])ccc2nc2n1CCCCC2", "GI50": "> 100 µM (inactive)"}
{"molecule": "C=C1[C@H](OC(=O)C(C)C)[C@]23CC4(O)[C@@H]5[C@@]6(C)CCC[C@]57C([C@@H]2C[C@@]1(O)[C@H](O)[C@@H]73)N4C6", "GI50": "> 100 µM (inactive)"}
{"molecule": "CC(C)CCCC(C)[C@H]1CC[C@H]2[C@@H]3CC[C@H]4C[C@@H](CCC=C(c5cc(Cl)c(O)c(C(=O)O)c5)c5cc(Cl)c(O)c(C(=O)O)c5)CC[C@]4(C)[C@H]3CC[C@]12C (some centres undefined)", "GI50": "> 50 µM (inactive)"}
{"molecule": "CCOC(=O)C1(N)CCc2[nH][nH]c(=O)c2C1 (centres undefined)", "GI50": "> 100 µM (inactive)"}
{"molecule": "CCOC(=O)c1nc2ccc(Cl)cc2c2c1Cc1ccccc1-2", "GI50": "> 100 µM (inactive)"}
{"molecule": "O=C1CCCC1NC(=O)C(F)(F)F (centres undefined)", "GI50": "> 100 µM (inactive)"}
{"molecule": "O=c1[nH]c(=O)n(COCc2ccccc2)c2ccc([N+](=O)[O-])cc12", "GI50": "> 100 µM (inactive)"}

Cited source: ChEMBL document CHEMBL1201862
